# TEST SYSTEM: human IDO (IDO1-expressing HEK293 cells) (Homo sapiens, UniProt P14902)
# Construct: expressed in transfected cells
# Sequence (P14902 whole entry): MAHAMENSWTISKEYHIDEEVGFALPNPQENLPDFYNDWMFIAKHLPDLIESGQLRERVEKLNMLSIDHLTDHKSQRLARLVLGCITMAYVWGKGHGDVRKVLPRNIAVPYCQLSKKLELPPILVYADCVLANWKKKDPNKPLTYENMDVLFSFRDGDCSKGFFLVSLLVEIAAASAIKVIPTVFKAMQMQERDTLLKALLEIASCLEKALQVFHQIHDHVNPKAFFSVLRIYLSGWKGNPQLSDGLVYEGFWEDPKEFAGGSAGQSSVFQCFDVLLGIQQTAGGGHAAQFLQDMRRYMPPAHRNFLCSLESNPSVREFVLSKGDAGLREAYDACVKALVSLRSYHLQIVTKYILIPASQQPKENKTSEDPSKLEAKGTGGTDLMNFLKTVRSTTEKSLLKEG
# TEST: Cell based kynurenine assay, IDO1-expressing HEK293 cell clones
# EXPERIMENTAL CONTEXT: IDO1-expressing HEK293 cells, 24 hours incubation; geometric mean; read-out: HEK293 IDO1 Kynurenine GMean IC50 (μM) (Cellular Assay)
Please provide measured IC50 for the entries that follow.

Task item: Return the recorded IC50 value; entry: CC(C)(C1CCN(C(=O)c2ccc(N3CCOCC3)nc2)CC1)C(O)c1cc(Cl)cc2cn[nH]c12 (centres unmarked) [Compound P-0367]
Reply: 0.0001 to 10 µM

Task item: Return the recorded IC50 value; entry: OC(c1cc(Cl)cc2cn[nH]c12)C(C1CC1)C1CC1 (centres unmarked) [Compound P-0204]
Reply: 0.0001 to 10 µM

Task item: Return the recorded IC50 value; entry: COc1cccc(NC(=O)N2CCC(C(C)(C)C(O)c3cc(Cl)cc4cn[nH]c34)CC2)c1 (centres unmarked) [Compound P-0182]
Reply: 0.0001 to 10 µM

Task item: Return the recorded IC50 value; entry: OC(c1c(F)c(Cl)c(F)c2cn[nH]c12)C1(C2CCCCC2)CC1 (centres unmarked) [Compound P-0247]
Reply: 0.0001 to 10 µM

Task item: Return the recorded IC50 value; entry: CC(=O)N1CCC(C2(C(O)c3cc(Cl)cc4cn[nH]c34)CC2)CC1 (centres unmarked) [Compound P-0130]
Reply: 0.0001 to 10 µM

Task item: Return the recorded IC50 value; entry: CC(C)(C1CCN(C(=O)Nc2cccc(C(F)(F)F)c2)CC1)C(O)c1cc(Cl)cc2cn[nH]c12 (centres unmarked) [Compound P-0400]
Reply: 0.0001 to 10 µM

Task item: Return the recorded IC50 value; entry: CC1(C(O)c2cccc3cncn23)CCCCC1 (centres unmarked) [Compound P-0061]
Reply: 0.0001 to 10 µM

Task item: Return the recorded IC50 value; entry: CC1(C)CN(c2c3c(cc4cn[nH]c24)CC3)CCN1S(C)(=O)=O [Compound P-0292]
Reply: 0.0001 to 10 µM

Task item: Return the recorded IC50 value; entry: CC(C)(C)OC(=O)N1CCC(CC(O)c2cccc3cncn23)CC1 (centres unmarked) [Compound P-0085]
Reply: > 10 µM

Task item: Return the recorded IC50 value; entry: OC(c1cc(F)cc2cn[nH]c12)C12CC3CC(CC(C3)C1)C2 (centres unmarked) [Compound P-0043]
Reply: 0.0001 to 10 µM

Task item: Return the recorded IC50 value; entry: CC1(C(O)c2c(Cl)ccn3cncc23)CCCCC1 (centres unmarked) [Compound P-0098]
Reply: 0.0001 to 10 µM

Task item: Return the recorded IC50 value; entry: CC(C)(C)OC(=O)N1CCC2(CC1)CC(O)(c1cc(Cl)cc3cn[nH]c13)C2 [Compound P-0019]
Reply: > 10 µM

Task item: Return the recorded IC50 value; entry: CC(C)(C1CCN(S(C)(=O)=O)CC1)C(O)c1cc(Cl)cc2[nH]ncc12 (centres unmarked) [Compound P-0171]
Reply: > 10 µM

Task item: Return the recorded IC50 value; entry: Cc1noc(C)c1NC(=O)N1CCC(C(C)(C)C(O)c2cc(Cl)cc3cn[nH]c23)CC1 (centres unmarked) [Compound P-0392]
Reply: 0.0001 to 10 µM

Task item: Return the recorded IC50 value; entry: CC(C)(C1CCN(C(=O)c2ccc(C(F)(F)F)nc2)CC1)C(O)c1cc(Cl)cc2cn[nH]c12 (centres unmarked) [Compound P-0363]
Reply: 0.0001 to 10 µM

Task item: Return the recorded IC50 value; entry: CC(C)(C1CCN(C(=O)C2CC2)CC1)C(O)c1cc(Cl)cc2cn[nH]c12 (centres unmarked) [Compound P-0312]
Reply: 0.0001 to 10 µM

Task item: Return the recorded IC50 value; entry: COC(=O)N1CCC(C(F)(F)C(O)c2cc(Cl)cc3cn[nH]c23)CC1 (centres unmarked) [Compound P-0141]
Reply: 0.0001 to 10 µM

###

# TEST SYSTEM: Human Tryptophan 2,3-dioxygenase (TDO) (Homo sapiens, UniProt P48775)
# Construct: His tag (N); made in house; host or cells: E. coli
# TEST: Human TDO enzymatic assay (kynurenine level)
# Assay type: biochemical
# EXPERIMENTAL CONTEXT: 1 nM TDO, 350 μM L-Trp; geometric mean; read-out: TDO GMean: IC50 (μM) (Biochemical Assay)
VALUE TYPE: IC50

Task item: Using Human Tryptophan 2,3-dioxygenase (TDO) (Homo sapiens, UniProt P48775) as the test system, report measured IC50 of CC(C)(C1CCN(C(=O)C(F)(F)F)CC1)[C@H](O)c1cc(Cl)cc2cn[nH]c12 .
Reply: 0.0001 to 10 µM

Task item: Using Human Tryptophan 2,3-dioxygenase (TDO) (Homo sapiens, UniProt P48775) as the test system, report measured IC50 of O=S(=O)(NC1CC(O)(c2cc(Cl)cc3cn[nH]c23)C1)c1ccccc1 (stereo not shown) .
Reply: 10 to 100 µM

Task item: Using Human Tryptophan 2,3-dioxygenase (TDO) (Homo sapiens, UniProt P48775) as the test system, report measured IC50 of OC1(c2cc(Cl)cc3cn[nH]c23)CC2(CCC2)C1 .
Reply: 0.0001 to 10 µM

Task item: Using Human Tryptophan 2,3-dioxygenase (TDO) (Homo sapiens, UniProt P48775) as the test system, report measured IC50 of CC(C)(C1CCC1)C(O)c1cc(Cl)cc2cn[nH]c12 (stereo not shown) .
Reply: 0.0001 to 10 µM

###

Please provide measured IC50 for the entries that follow.
# TEST SYSTEM: human TDO (TDO-expressing HEK293 cells) (Homo sapiens, UniProt P48775)
# Construct: expressed in transfected cells
# Sequence (P48775 whole entry): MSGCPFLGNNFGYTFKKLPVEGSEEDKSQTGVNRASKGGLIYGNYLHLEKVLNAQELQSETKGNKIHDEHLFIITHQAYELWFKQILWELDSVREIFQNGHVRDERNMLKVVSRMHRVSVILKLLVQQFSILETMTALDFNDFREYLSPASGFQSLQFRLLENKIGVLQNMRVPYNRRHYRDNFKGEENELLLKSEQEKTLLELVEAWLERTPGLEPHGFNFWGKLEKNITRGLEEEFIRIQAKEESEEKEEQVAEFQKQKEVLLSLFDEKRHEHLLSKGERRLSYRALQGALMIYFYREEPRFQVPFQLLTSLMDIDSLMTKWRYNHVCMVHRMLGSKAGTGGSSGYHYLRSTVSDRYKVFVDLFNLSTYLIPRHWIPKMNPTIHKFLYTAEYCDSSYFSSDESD
# TEST: Cell based kynurenine assay, TDO-expressing HEK293 cell clones
# EXPERIMENTAL CONTEXT: TDO-expressing HEK293 cells, 24 hours incubation; geometric mean; read-out: HEK293 TDO Kynurenine GMean IC50 (μM) (Cellular Assay)

Task item: Using human TDO (TDO-expressing HEK293 cells) (Homo sapiens, UniProt P48775) as the test system, report measured IC50 of OC(c1c(F)c(Cl)c(F)c2cn[nH]c12)C1CCC1 (stereo not shown) .
Reply: 0.0001 to 10 µM

Task item: Using human TDO (TDO-expressing HEK293 cells) (Homo sapiens, UniProt P48775) as the test system, report measured IC50 of CCC(=O)NC(C)(C)CC(O)c1cc(Cl)cc2cn[nH]c12 (stereo not shown) .
Reply: > 10 µM

Task item: Using human TDO (TDO-expressing HEK293 cells) (Homo sapiens, UniProt P48775) as the test system, report measured IC50 of CC(C1CC1)(C1CC1)C(O)c1cc(Cl)cc2cn[nH]c12 (stereo not shown) .
Reply: 0.0001 to 10 µM

Task item: Using human TDO (TDO-expressing HEK293 cells) (Homo sapiens, UniProt P48775) as the test system, report measured IC50 of OC(c1cc(Cl)cc2cn[nH]c12)C1(C(F)(F)F)CCC1 (stereo not shown) .
Reply: 0.0001 to 10 µM

Task item: Using human TDO (TDO-expressing HEK293 cells) (Homo sapiens, UniProt P48775) as the test system, report measured IC50 of COC(=O)N1CC2CCC(C1)C2CC(O)c1cc(Cl)cc2cn[nH]c12 (stereo not shown) .
Reply: 0.0001 to 10 µM

Task item: Using human TDO (TDO-expressing HEK293 cells) (Homo sapiens, UniProt P48775) as the test system, report measured IC50 of CNC(=O)N1CCC(C(C)(C)C(O)c2cc(Cl)cc3[nH]ncc23)CC1 (stereo not shown) .
Reply: 0.0001 to 10 µM

Task item: Using human TDO (TDO-expressing HEK293 cells) (Homo sapiens, UniProt P48775) as the test system, report measured IC50 of OC(c1cc(Cl)cc2cn[nH]c12)C1(C2CCOCC2)CC1 (stereo not shown) .
Reply: 0.0001 to 10 µM

Task item: Using human TDO (TDO-expressing HEK293 cells) (Homo sapiens, UniProt P48775) as the test system, report measured IC50 of CS(=O)(=O)N1CCC(C2(C(O)c3cc(Cl)cc4cn[nH]c34)CC2)CC1 (stereo not shown) .
Reply: 0.0001 to 10 µM

Task item: Using human TDO (TDO-expressing HEK293 cells) (Homo sapiens, UniProt P48775) as the test system, report measured IC50 of CN1CCC(C(C)(C)C(O)c2cc(Cl)cc3cn[nH]c23)CC1 (stereo not shown) .
Reply: 0.0001 to 10 µM

Task item: Using human TDO (TDO-expressing HEK293 cells) (Homo sapiens, UniProt P48775) as the test system, report measured IC50 of O=C(Nc1cccc(C(F)(F)F)c1)N1CCC(C(F)(F)C(O)c2cc(Cl)cc3cn[nH]c23)CC1 (stereo not shown) .
Reply: 0.0001 to 10 µM

Task item: Using human TDO (TDO-expressing HEK293 cells) (Homo sapiens, UniProt P48775) as the test system, report measured IC50 of CC(C)(C(O)c1cc(Cl)cc2cn[nH]c12)N1CCCC1 (stereo not shown) .
Reply: > 10 µM

Task item: Using human TDO (TDO-expressing HEK293 cells) (Homo sapiens, UniProt P48775) as the test system, report measured IC50 of OC(c1cc(Cl)cc2cn[nH]c12)C12CCC(O)(CC1)CC2 (stereo not shown) .
Reply: 0.0001 to 10 µM

Task item: Using human TDO (TDO-expressing HEK293 cells) (Homo sapiens, UniProt P48775) as the test system, report measured IC50 of OC(c1cc(Cl)cc2cn[nH]c12)C12CC3CC(CC(C3)C1)C2 (stereo not shown) .
Reply: 0.0001 to 10 µM

Task item: Using human TDO (TDO-expressing HEK293 cells) (Homo sapiens, UniProt P48775) as the test system, report measured IC50 of COC12CCC(C(O)c3c(F)c(Cl)cc4cn[nH]c34)(CC1)CC2 (stereo not shown) .
Reply: 0.0001 to 10 µM

Task item: Using human TDO (TDO-expressing HEK293 cells) (Homo sapiens, UniProt P48775) as the test system, report measured IC50 of CC(C)(C1CCN(C2CC2)CC1)C(O)c1cc(Cl)cc2cn[nH]c12 (stereo not shown) .
Reply: 0.0001 to 10 µM

Task item: Using human TDO (TDO-expressing HEK293 cells) (Homo sapiens, UniProt P48775) as the test system, report measured IC50 of CC(C)(C1CCN(C(=O)NCC(F)(F)F)CC1)C(O)c1cc(Cl)cc2cn[nH]c12 (stereo not shown) .
Reply: 0.0001 to 10 µM

Task item: Using human TDO (TDO-expressing HEK293 cells) (Homo sapiens, UniProt P48775) as the test system, report measured IC50 of O[C@H](c1c(F)c(Cl)cc2cn[nH]c12)C12CCC(CC1)CC2 .
Reply: 0.0001 to 10 µM

Task item: Using human TDO (TDO-expressing HEK293 cells) (Homo sapiens, UniProt P48775) as the test system, report measured IC50 of Cc1noc(C)c1NC(=O)N1CCC(C(C)(C)C(O)c2cc(Cl)cc3cn[nH]c23)CC1 (stereo not shown) .
Reply: 0.0001 to 10 µM

Task item: Using human TDO (TDO-expressing HEK293 cells) (Homo sapiens, UniProt P48775) as the test system, report measured IC50 of CC(C)(C1CCN(C(=O)c2ccccc2F)CC1)C(O)c1cc(Cl)cc2cn[nH]c12 (stereo not shown) .
Reply: 0.0001 to 10 µM

Task item: Using human TDO (TDO-expressing HEK293 cells) (Homo sapiens, UniProt P48775) as the test system, report measured IC50 of CC(C)(C)C(O)c1c(Cl)c(Cl)cc2cn[nH]c12 (stereo not shown) .
Reply: 0.0001 to 10 µM

Task item: Using human TDO (TDO-expressing HEK293 cells) (Homo sapiens, UniProt P48775) as the test system, report measured IC50 of O=C(Nc1ccc(F)cc1)N1CCC(C(F)(F)C(O)c2cc(Cl)cc3cn[nH]c23)CC1 (stereo not shown) .
Reply: 0.0001 to 10 µM

Task item: Using human TDO (TDO-expressing HEK293 cells) (Homo sapiens, UniProt P48775) as the test system, report measured IC50 of CC(C)(CC1CCOCC1)C(O)c1cc(Cl)cc2cn[nH]c12 (stereo not shown) .
Reply: 0.0001 to 10 µM
